Cited source: the supplement of paper PMC7125110

B1: glmS ribozyme (parent)
chain: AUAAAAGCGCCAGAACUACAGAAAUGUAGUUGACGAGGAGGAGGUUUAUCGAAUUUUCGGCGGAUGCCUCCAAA

Variants of: B1
Assay: self-cleavage kobs at 40 uM GlcN6P; higher = faster cleavage; RNA array
Settings: with glucosamine-6-phosphate
This sample holds only a part of the variants without activity.

{"columns": ["VARIANT_IDENTIFIER", "self-cleavage kobs at 40 uM GlcN6P"],
 "data": [
  ["A12G C34G G38C A39C A42U G60C C71U", "< 1e-05 s⁻¹"],
  ["A33C C50G C71U", "0.000772 s⁻¹"],
  ["C34U U55C", "< 1e-05 s⁻¹"],
  ["C11G A12U", "< 1e-05 s⁻¹"],
  ["C8G A36G", "< 1e-05 s⁻¹"],
  ["A6C G35A", "< 1e-05 s⁻¹"],
  ["U31C G37U G62C A64U C70A", "< 1e-05 s⁻¹"],
  ["A6G A39G C68A C70G", "< 1e-05 s⁻¹"],
  ["A15C C71U", "0.000165 s⁻¹"],
  ["A12C C34A", "< 1e-05 s⁻¹"],
  ["C16U A42G", "0.000669 s⁻¹"],
  ["C8G A64C", "< 1e-05 s⁻¹"],
  ["U30A U56A", "9.28e-05 s⁻¹"],
  ["U45G C71U", "0.000147 s⁻¹"],
  ["A33C A52U", "< 1e-05 s⁻¹"],
  ["U31A C50A", "< 1e-05 s⁻¹"],
  ["U56A U65G", "3.75e-05 s⁻¹"],
  ["G41C G63C", "< 1e-05 s⁻¹"],
  ["G9C A14U G51A C70G", "< 1e-05 s⁻¹"],
  ["C50G C58A C67A", "7.83e-05 s⁻¹"],
  ["C16U C61G U65G", "< 1e-05 s⁻¹"],
  ["A6G U47G", "< 1e-05 s⁻¹"],
  ["C10U G41U", "< 1e-05 s⁻¹"],
  ["A6U A14U G35C A39U U55A C58A", "< 1e-05 s⁻¹"],
  ["G7A C8G G9C C10G A12C G13A A14G C16A U17C U31A", "0.000115 s⁻¹"],
  ["A33G A64C", "< 1e-05 s⁻¹"],
  ["C16A A33U G38C", "< 1e-05 s⁻¹"],
  ["C8U A14U G29C U46A G51A", "< 1e-05 s⁻¹"],
  ["A48G C61U G66C C70U", "< 1e-05 s⁻¹"],
  ["G37C G38C G40U U55A", "< 1e-05 s⁻¹"],
  ["U46A C67U", "9.11e-05 s⁻¹"],
  ["A6G C10A G29U", "< 1e-05 s⁻¹"],
  ["C8U G32A G41U", "< 1e-05 s⁻¹"],
  ["G44U U45G", "0.000269 s⁻¹"],
  ["A33U U54G", "< 1e-05 s⁻¹"],
  ["G9U G43C U46G C67A", "< 1e-05 s⁻¹"],
  ["G7A A48C", "< 1e-05 s⁻¹"],
  ["C11U U65G", "< 1e-05 s⁻¹"],
  ["C34G C58G", "< 1e-05 s⁻¹"],
  ["C11U C61U", "< 1e-05 s⁻¹"],
  ["U31C G51C", "< 1e-05 s⁻¹"],
  ["C10G A14C A36G U55A C71U", "< 1e-05 s⁻¹"],
  ["U45G A52C", "< 1e-05 s⁻¹"],
  ["U30C G37C C58A G60U", "< 1e-05 s⁻¹"],
  ["C10A A12G", "< 1e-05 s⁻¹"],
  ["A12U C61G", "< 1e-05 s⁻¹"],
  ["G9U A33G", "< 1e-05 s⁻¹"],
  ["A12U U57C G59C", "< 1e-05 s⁻¹"],
  ["U31G G40U", "3.85e-05 s⁻¹"],
  ["C10U A15G C67G", "< 1e-05 s⁻¹"],
  ["G38U A52U U57G A64G", "< 1e-05 s⁻¹"],
  ["A53C C58A G60U", "< 1e-05 s⁻¹"],
  ["C34A C71A", "< 1e-05 s⁻¹"],
  ["A14G A36U A48U", "< 1e-05 s⁻¹"],
  ["A14U U65G", "2.77e-05 s⁻¹"],
  ["A52G C70A", "2.42e-05 s⁻¹"],
  ["G9C G32C", "< 1e-05 s⁻¹"],
  ["A53U C71A", "0.000169 s⁻¹"],
  ["G13A U47C C58U C71U", "< 1e-05 s⁻¹"],
  ["A36C G41U G51A G60U", "< 1e-05 s⁻¹"],
  ["A39C A48U", "< 1e-05 s⁻¹"],
  ["U46C C70U", "0.00017 s⁻¹"],
  ["A14C G59C", "< 1e-05 s⁻¹"],
  ["G66A C70G", "8.19e-05 s⁻¹"],
  ["A48G U56G", "< 1e-05 s⁻¹"],
  ["A48C C58U", "< 1e-05 s⁻¹"],
  ["G35C A48G C50A", "< 1e-05 s⁻¹"],
  ["A6G G51U U57C", "< 1e-05 s⁻¹"],
  ["G32U G40U U46C U54G C70G", "< 1e-05 s⁻¹"],
  ["U49A C67U", "< 1e-05 s⁻¹"],
  ["G9A G29C", "< 1e-05 s⁻¹"],
  ["U47A G62U", "< 1e-05 s⁻¹"],
  ["G59U A64G", "< 1e-05 s⁻¹"],
  ["G7C G44C A64U", "< 1e-05 s⁻¹"],
  ["G32U U45A", "0.000103 s⁻¹"],
  ["G9A A14C G37C G38U U49C U69A", "< 1e-05 s⁻¹"],
  ["C8U A64U", "< 1e-05 s⁻¹"],
  ["A6C A36G A52G", "< 1e-05 s⁻¹"],
  ["G32U A42U C58U", "< 1e-05 s⁻¹"],
  ["U31G C50G C67U", "8.62e-05 s⁻¹"],
  ["G13C G63U", "< 1e-05 s⁻¹"],
  ["G38A U57G", "< 1e-05 s⁻¹"],
  ["A42U U54C U55C", "< 1e-05 s⁻¹"],
  ["G59C U65G", "< 1e-05 s⁻¹"],
  ["A14U G51U", "< 1e-05 s⁻¹"],
  ["C16U A52G", "3.86e-05 s⁻¹"],
  ["C10G U30A A42U G51A", "< 1e-05 s⁻¹"],
  ["C11G G41C C50U", "< 1e-05 s⁻¹"],
  ["C58G G62U C68A", "4.88e-05 s⁻¹"],
  ["A12C U54G G66U", "5.6e-05 s⁻¹"],
  ["C16G C67U", "4.87e-05 s⁻¹"]
]}
